# Tested on: LOX IMVI melanoma
# test_details: NCI-60 one-dose screen, 48 h
# details: 10 µM unless noted
About 83,000 compounds went through this panel and 20% of them were active in at least one assay; those are over-represented in the sample as a whole. Activity calls are given as the source filed them. Rule for the calls: active = growth percent below 10; inactive = the rest.
Respond with a class label; see active, inactive

Solved cases (4 shown):
I would be grateful if you could indicate the recorded call for C#C[C@]1(O)CC[C@H]2[C@@H]3CC=C4c5sc(N(C)c6ccccc6)nc5CC[C@]4(C)[C@H]3CC[C@@]21C .
inactive

I would be grateful if you could indicate the recorded call for Cc1cc(=O)[nH]c(O)c1C#N .
inactive

I would be grateful if you could indicate the recorded call for CC[C@]12C=CCN3CC[C@]4(C(=C(C(=O)OC)C1)Nc1cc5c(cc14)[C@@H]1[C@H](O5)[C@@H](O)[C@@]4(CC)CC(C(=O)OC)=C5Nc6cc(O)ccc6[C@@]56CCN1C46)C32 (stereo partly specified) .
active

I would be grateful if you could indicate the recorded call for Cc1cc2nc3c4cc(C#N)ccc4n(CCN(C)C)c3nc2cc1C .
active

***
I would be grateful if you could indicate the recorded call for O=C(/C=C/c1cccc(Br)c1)c1cccc(OCCCCOc2cccc(C(=O)/C=C/c3cccc(Br)c3)c2)c1 .
inactive

I would be grateful if you could indicate the recorded call for COC(=O)c1cccc(NC2=CC(=O)C(C)=C(C)C2=O)c1 .
inactive

----------
# System: SNB-19 CNS
# test_details: NCI-60 one-dose screen, 48 h (100 = growth as untreated, 0 = no growth, -100 = all killed)
# details: 10 µM unless noted
This is part of a sample that, as a whole, favours compounds with a hit. Of some 83,000 tested, about 20% had one in any assay.
quantity: growth (%)
Record the value in %, omitting the unit from your answer.

Quick one: give measured growth for Cc1ccc2c(n1)C(=O)C(Cl)=C(Nc1ccc(C(F)(F)F)cc1)C2=O
97.5

Quick one: give measured growth for C/C(CC1(O)C(=O)Nc2ccccc21)=N\O (stereo not drawn)
103

Quick one: give measured growth for C/C(=N\NC(N)=S)c1nnn(-c2ccc([N+](=O)[O-])cc2)c1C
95.6

Quick one: give measured growth for N#Cc1c(-c2cccs2)cc(-c2cnccn2)nc1SCC(=O)N/N=C/c1ccc(Cl)cc1
105

Quick one: give measured growth for Brc1cccc(-c2cc(-c3cnc4c(c3)OCCO4)n[nH]2)c1
59.8

***
Quick one: give measured growth for CC(=O)c1c([Si](C)(C)C)c2cc(C#N)ccn2c1C(=O)c1ccc(Br)cc1
86.9

Quick one: give measured growth for COc1ccc2[nH]cc(-c3nn4cc(-c5ccncc5)nc4s3)c2c1
75.3

Quick one: give measured growth for O=C(CCCCCC/C=C\c1csc(Br)n1)NO
97

Quick one: give measured growth for CN1CCN(Cc2ccc(NC(=O)c3cncc(C#Cc4cnc(N)nc4)c3)cc2C(F)(F)F)CC1
57.4

Quick one: give measured growth for Cc1ccc([C@H]2c3[nH]c4ccccc4c3C[C@H]3C(=O)N(CCCCCCC(=O)NO)CC(=O)N23)s1
62.7

Quick one: give measured growth for CC(C)Sc1nc(-c2ccccc2)c(C#N)c(N2CCOCC2)n1
69

----------
# System: A549/ATCC NSCLC
# test_details: NCI-60 one-dose screen, 48 h (100 = growth as untreated, 0 = no growth, -100 = all killed)
# details: 10 µM unless noted
About 83,000 compounds went through this panel and 20% of them were active in at least one assay; those are over-represented in the sample as a whole.
Recorded growth, one value per entry.
Record the value in %, omitting the unit from your answer.

Record excerpt, results attached:
Report value only: growth, A549/ATCC NSCLC, Cc1ccc2c(n1)C(=O)C(Cl)=C(Nc1ccc(C)c(C)c1)C2=O
24.5

Report value only: growth, A549/ATCC NSCLC, CCN1CCN(c2ccc(NC(=O)Nc3ccc4c(ccn4-c4ccnc(C(=O)NC)c4)c3)cc2C(F)(F)F)CC1
91.3

Report value only: growth, A549/ATCC NSCLC, Cc1cc(=O)oc2cc(OCCCOc3ccc(/C=C/C(=O)Nc4ccc(Br)cc4)cc3)ccc12
92.2

Report value only: growth, A549/ATCC NSCLC, CCOP(=O)(OCC)OC[C@]12CCC(C)(C)C[C@H]1C1=CC[C@@H]3[C@@]4(C)CC[C@H](OP(=O)(OCC)OCC)C(C)(C)[C@@H]4CC[C@@]3(C)[C@]1(C)CC2
44.3

Report value only: growth, A549/ATCC NSCLC, Cc1cc(NS(=O)(=O)c2ccc(NC(=O)CSc3nc4ccccc4c(=O)n3-c3ccccc3)cc2)no1
101

Report value only: growth, A549/ATCC NSCLC, COc1ccc(/C=N/NC(=O)c2c(N)nn(C)c2Nc2ccccc2)cc1
57.1

***
Report value only: growth, A549/ATCC NSCLC, Brc1cccc(-c2cc(-c3cnc4c(c3)OCCO4)n[nH]2)c1
36.8

Report value only: growth, A549/ATCC NSCLC, O=S(=O)(Oc1ccc(-c2cn3ccoc3n2)cc1)C1CCCCC1
99.4
